SYSTEM UNDER TEST: Programmed cell death protein 1/Programmed cell death 1 ligand 1 (Homo sapiens)
Sequence (Q15116 whole entry): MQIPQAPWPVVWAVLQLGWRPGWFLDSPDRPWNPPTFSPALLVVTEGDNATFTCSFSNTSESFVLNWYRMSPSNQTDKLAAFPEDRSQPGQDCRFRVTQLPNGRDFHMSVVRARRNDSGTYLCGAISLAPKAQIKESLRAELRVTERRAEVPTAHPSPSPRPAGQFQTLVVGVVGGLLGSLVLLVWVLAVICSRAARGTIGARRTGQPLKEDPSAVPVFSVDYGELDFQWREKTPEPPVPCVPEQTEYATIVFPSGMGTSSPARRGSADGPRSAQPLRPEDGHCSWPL
Sequence (Q9NZQ7 whole entry): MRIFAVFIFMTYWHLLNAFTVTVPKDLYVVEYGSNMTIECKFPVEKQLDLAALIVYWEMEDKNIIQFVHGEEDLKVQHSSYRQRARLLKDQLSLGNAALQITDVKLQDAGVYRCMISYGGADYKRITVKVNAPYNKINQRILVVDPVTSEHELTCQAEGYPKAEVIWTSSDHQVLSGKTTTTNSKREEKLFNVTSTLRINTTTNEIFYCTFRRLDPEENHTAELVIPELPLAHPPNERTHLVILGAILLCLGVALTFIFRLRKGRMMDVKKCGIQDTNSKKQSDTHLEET
RUN DESCRIPTION: Inhibition of human PD-1/PDL1 interaction incubated for 1 hr by HTRF assay
Type: protein-complex assay
METRIC: pIC50
Conceptually, pIC50 converts a concentration in mol/L into minus its log10.

Prompt line: API: value(readout= pIC50, system= Programmed cell death protein 1/Programmed cell death 1 ligand 1 (Homo sapiens), query= COc1cc(-c2cccc(-c3ccc4c(c3)OCCO4)c2Cl)ccc1CN1CCCC(C(=O)NC(CO)CO)C1 (stereo unspecified) )
Response line: 8.22
